Consider the following binders and their measured pKd readings.
target_or_system: T1, commercial, recombinant extracellular domain of human BAFF-R (human, UniProt Q96RJ3 1-78)
T1 construct: extracellular domain
assay_notes: Biacore analysis; antibody as loading sample, recombinant human BAFF-R ECD as sample
pKd: −log10 of the molar value.
metric: pKd

binder | readout_value
humanized C90 variant HC1 + LC2 (antibody, V domains shown, also called Humanized HC1 + LC2; Hu90 HC-1 with Hu90 LC-2) VH: QVQLQESGPGLVKPSQTLSLTCTVSGDSITSGYWNWIRQHPGKGLEYIGYISYSGSTYYNPSLKSRVTISRDTSKNQFSLKLSSVTAADTAVYYCASPNYPFYAMDYWGQGTLVTVSS VL: DIVLTQSPATLSLSPGERATLSCRASESVDNYGISFMNWFQQKPGQAPRLLIYAASNRATGIPARFSGSGSGTDFTLTISSLEPEDFAVYYCQQSKEVPWTFGGGTKVEIKR | 8.43
humanized C90 variant HC2 + LC1 (antibody, V domains shown, also called Humanized HC2 + LC1; Hu90 HC-2 with Hu90 LC-1) VH: EVQLQESGPGLVKPSQTLSLTCTVSGDSITSGYWNWIRQHPGKGLEYIGYISYSGSTYYNPSLKSRVTISRDTSKNQYSLKLSSVTAADTAVYYCASPNYPFYAMDYWGQGTLVTVSS VL: EIVLTQSPATLSLSPGERATLSCRASESVDNYGISFLNWFQQKPGQAPRLLIYAASNRATGIPARFSGSGSGTDFTLTISSLEPEDFAVYYCQQSKEVPWTFGGGTKVEIKR | 8.59
humanized C90 variant HC1 + LC3 (antibody, V domains shown, also called Humanized HC1 + LC3; Hu90 HC-1 with Hu90 LC-3) VH: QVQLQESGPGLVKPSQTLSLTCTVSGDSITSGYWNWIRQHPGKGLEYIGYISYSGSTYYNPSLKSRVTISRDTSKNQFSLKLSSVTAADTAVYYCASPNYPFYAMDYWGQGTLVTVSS VL: DIVMTQSPSSLSASVGDRVTITCRASESVDNYGISFMNWFQQKPGKAPKLLIYAASNLGSGVPSRFSGSGSGTDFTLTISSLQPEDFATYYCQQSKEVPWTFGQGTKVEIKR | 8.30
humanized C90 variant HC1 + LC1 (antibody, V domains shown, also called Humanized HC1 + LC1; Hu90 HC-1 with Hu90 LC-1) VH: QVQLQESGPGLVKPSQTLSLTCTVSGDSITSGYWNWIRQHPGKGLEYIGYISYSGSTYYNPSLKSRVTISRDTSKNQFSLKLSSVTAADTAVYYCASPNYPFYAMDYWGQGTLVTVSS VL: EIVLTQSPATLSLSPGERATLSCRASESVDNYGISFLNWFQQKPGQAPRLLIYAASNRATGIPARFSGSGSGTDFTLTISSLEPEDFAVYYCQQSKEVPWTFGGGTKVEIKR | 8.40
